# test-details: physchem
# test-settings: water
# Description: The water-solubility and lipophilicity of the allopurinol drugs The apparent partition coefficients (P) for some allopurinol derivatives and allopurinol were measured using the widely used 1-octanol-water system. Similarly, the solubility of the derivatives in water or aqueous buffer solutions was determined.
solubility by entry:
Please state the figure in µg/mL; there is no need to write the unit.

# count of solved cases: 3
molecular_string=CCN(CC)C(=O)CCC(=O)OCn1ncc2c(O)ncnc21 property_label=solubility unit_symbol=µg/mL result_number=33000
molecular_string=CC(=O)OCn1cc2c(=O)n(COC(C)=O)cnc2n1 property_label=solubility unit_symbol=µg/mL result_number=2900
molecular_string=CCCC(=O)OCn1cnc2c(cnn2COC(=O)CCC)c1=O property_label=solubility unit_symbol=µg/mL result_number=50

stdin: Tell us which solubility value is on record for CC(C)(C)C(=O)OCn1cc2c(=O)[nH]cnc2n1
stdout: 1700

stdin: Tell us which solubility value is on record for CCCC(=O)OCn1cc2c(=O)[nH]cnc2n1
stdout: 1500

stdin: Tell us which solubility value is on record for CCCC(=O)OCn1cc2c(=O)n(COC(=O)CCC)cnc2n1
stdout: 94

stdin: Tell us which solubility value is on record for CCC(=O)n1ncc2c(O)ncnc21
stdout: 300

###

# test-settings: pH 8
Structures can show the parent of a compound that is named as a salt.
log P by entry:
Enter a number only.

compound="CCN(CC)C(C)C(=O)OCn1ncc2c(=O)[nH]cnc21 (racemic) [(hydrochloride)]" result_number=0.72
compound="CC(C)C[C@H](N)C(=O)OCn1ncc2c(=O)[nH]cnc21 [1-(L-Leucyloxymethyl)allopurinol, (hydrobromide)]" result_number=0.19
compound="NC(C(=O)OCn1ncc2c(=O)[nH]cnc21)c1ccccc1 (racemic) [1-(DL-Phenylglycyloxymethyl)allopurinol, (hydrobromide)]" result_number=-0.15
compound="CN(C)CC(=O)OCn1ncc2c(=O)[nH]cnc21 [(hydrochloride)]" result_number=-0.49
compound="CCCN(CCC)CC(=O)OCn1ncc2c(=O)[nH]cnc21 [(hydrochloride)]" result_number=1.27

Attention now shifts to the item below.
stdin: Tell us which log P value is on record for NC(Cc1ccccc1)C(=O)OCn1ncc2c(=O)[nH]cnc21 (racemic) [1-(DL-Phenylalanyloxymethyl)allopurinol, (hydrobromide)]
stdout: 0.40

###

# test-details: physchem
# test-settings: water
# Procedure: The water-solubility and lipophilicity of the allopurinol drugs The apparent partition coefficients (P) for some allopurinol derivatives and allopurinol were measured using the widely used 1-octanol-water system. Similarly, the solubility of the derivatives in water or aqueous buffer solutions was determined.
Counter-ions that a name gives are not always drawn.
solubility by entry:

# count of solved cases: 3
molecule="NC(C(=O)OCn1ncc2c(=O)[nH]cnc21)c1ccccc1 (racemic) [1-(DL-Phenylglycyloxymethyl)allopurinol, (hydrobromide)]" result="> 200 mg/mL"
molecule="NC(Cc1ccccc1)C(=O)OCn1ncc2c(=O)[nH]cnc21 (racemic) [1-(DL-Phenylalanyloxymethyl)allopurinol, (hydrobromide)]" result="> 200 mg/mL"
molecule="CCN(CC)C(C)C(=O)OCn1ncc2c(=O)[nH]cnc21 (racemic) [(hydrochloride)]" result="> 400 mg/mL"

stdin: Tell us which solubility value is on record for NCC(=O)OCn1ncc2c(=O)[nH]cnc21 [1-(Glycyloxymethyl)allopurinol, (hydrochloride)]
stdout: > 500 mg/mL

stdin: Tell us which solubility value is on record for CCN(CC)CC(=O)OCn1ncc2c(=O)[nH]cnc21 [(hydrochloride)]
stdout: > 500 mg/mL

stdin: Tell us which solubility value is on record for O=C(OCn1ncc2c(=O)[nH]cnc21)c1cccnc1
stdout: 0.093 mg/mL

stdin: Tell us which solubility value is on record for Oc1ncnc2[nH]ncc12
stdout: 0.5 mg/mL
